Test system: VA-ES-BJ tumor spheroid viability
Method Summary: Anticancer human tumor VA-ES-BJ cell line growth inhibition;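 further: spheroids exposed to compounds for seven days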;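 on viability, T/C: percent of DMSO vehicle control viability so 100% = untreated growth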
Setup Conditions: second compound 0.0003 µM; first compound 0.0316 µM; stronger effect = lower value; spheroids with HUVEC and MSC
Procedure: Multicellular complex tumor spheroid response to DNA repair inhibitors in combination with DNA-damaging drugs This study explores the anticancer activities of DNA-damaging drugs and inhibitors of DNA damage repair, both as single agents and in combinations. […] Twenty-six patient-derived or established malignant cell lines were evaluated representing sarcoma, melanoma, small cell lung cancer (SCLC), non-small cell lung cancer (NSCLC), as well as bladder, ovarian and pancreatic cancers. […]
Measure: viability, T/C (%)
I only need the number, in %, no unit after it.

Which value of viability, T/C has been reported for Cc1cc(C)c(CNC(=O)c2cc(-c3ccc(CN4CCOCC4)cc3)cc3c2cnn3C2CCCC2)c(=O)[nH]1 + COc1cc2c(cc1O)CCNC21CSC2c3c(OC(C)=O)c(C)c4c(c3C(COC1=O)N1C(O)C3Cc5cc(C)c(OC)c(O)c5C(C21)N3C)OCO4 in the records? 48.5

Fill blank: measured viability, T/C of the molecule CC1COCCN1c1cc(-c2ccnn2C)c2ccnc(-c3ccn[nH]3)c2n1 (stereo unspecified) + COc1cc2c(cc1O)CCNC21CSC2c3c(OC(C)=O)c(C)c4c(c3C(COC1=O)N1C(O)C3Cc5cc(C)c(OC)c(O)c5C(C21)N3C)OCO4 is ____. 16.9

Need viability, T/C of [2H]c1nc(C)nc([2H])c1-c1cc(NC[C@@H](C)c2cccc3c(C(=O)NC)ccnc23)ncn1 + COc1cc2c(cc1O)CCNC21CSC2c3c(OC(C)=O)c(C)c4c(c3C(COC1=O)N1C(O)C3Cc5cc(C)c(OC)c(O)c5C(C21)N3C)OCO4 , thanks. 46.8

Look at this molecule and give its reported viability, T/C. COc1cc(C)[nH]c(=O)c1CN1CCc2c(Cl)cc(C(OC)C3COC3)c(Cl)c2C1=O (stereo unspecified) + COc1cc2c(cc1O)CCNC21CSC2c3c(OC(C)=O)c(C)c4c(c3C(COC1=O)N1C(O)C3Cc5cc(C)c(OC)c(O)c5C(C21)N3C)OCO4 38.5

Look up viability, T/C for this molecule: CC(C)n1c(=O)n(C)c2cnc3cc(F)c(-c4ccc(OCCCN5CCCCC5)nc4)cc3c21 + COc1cc2c(cc1O)CCNC21CSC2c3c(OC(C)=O)c(C)c4c(c3C(COC1=O)N1C(O)C3Cc5cc(C)c(OC)c(O)c5C(C21)N3C)OCO4 25.9

May I ask what viability, T/C has been recorded for COc1ccc([C@@H](O)c2cc(-c3ncnc4cc(N5CCOCC5)ccc34)c(F)cc2Cl)nn1 + COc1cc2c(cc1O)CCNC21CSC2c3c(OC(C)=O)c(C)c4c(c3C(COC1=O)N1C(O)C3Cc5cc(C)c(OC)c(O)c5C(C21)N3C)OCO4 ? 59.6

---

Test system: VA-ES-BJ tumor spheroid viability
Method Summary: Anticancer human tumor VA-ES-BJ cell line growth inhibition;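 further: spheroids exposed to compounds for seven days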
Setup Conditions: curve of first compound; second compound 0.000949 µM; spheroids with HUVEC and MSC
Kindly state IC50 for each of the entries shown.

Give recorded IC50 with VA-ES-BJ tumor spheroid viability for the following molecule: COc1ccc([C@@H](O)c2cc(-c3ncnc4cc(N5CCOCC5)ccc34)c(F)cc2Cl)nn1 + COc1cc2c(cc1O)CCNC21CSC2c3c(OC(C)=O)c(C)c4c(c3C(COC1=O)N1C(O)C3Cc5cc(C)c(OC)c(O)c5C(C21)N3C)OCO4 < 31.6 nM

Provide the documented IC50 with VA-ES-BJ tumor spheroid viability as the system for Cn1ncnc1[C@H]1c2n[nH]c(=O)c3cc(F)cc(c23)N[C@@H]1c1ccc(F)cc1 + COc1cc2c(cc1O)CCNC21CSC2c3c(OC(C)=O)c(C)c4c(c3C(COC1=O)N1C(O)C3Cc5cc(C)c(OC)c(O)c5C(C21)N3C)OCO4 < 9.49 nM

Record [2H]c1nc(C)nc([2H])c1-c1cc(NC[C@@H](C)c2cccc3c(C(=O)NC)ccnc23)ncn1 + COc1cc2c(cc1O)CCNC21CSC2c3c(OC(C)=O)c(C)c4c(c3C(COC1=O)N1C(O)C3Cc5cc(C)c(OC)c(O)c5C(C21)N3C)OCO4 : what is its IC50 with VA-ES-BJ tumor spheroid viability? < 31.6 nM

Field: IC50 (VA-ES-BJ tumor spheroid viability). Entry: CC1COCCN1c1cc(-c2ccnn2C)c2ccnc(-c3ccn[nH]3)c2n1 (stereo not given) + COc1cc2c(cc1O)CCNC21CSC2c3c(OC(C)=O)c(C)c4c(c3C(COC1=O)N1C(O)C3Cc5cc(C)c(OC)c(O)c5C(C21)N3C)OCO4 < 31.6 nM

Recorded IC50 for Cc1sc2c(c1C)C(c1ccc(Cl)cc1)=NC(CC(=O)Nc1ccc(O)cc1)c1nnc(C)n1-2 (stereo not given) + COc1cc2c(cc1O)CCNC21CSC2c3c(OC(C)=O)c(C)c4c(c3C(COC1=O)N1C(O)C3Cc5cc(C)c(OC)c(O)c5C(C21)N3C)OCO4 with VA-ES-BJ tumor spheroid viability, please? < 9.49 nM

Return IC50 measured with VA-ES-BJ tumor spheroid viability given this molecule: COc1cc(C)[nH]c(=O)c1CN1CCc2c(Cl)cc(C(OC)C3COC3)c(Cl)c2C1=O (stereo not given) + COc1cc2c(cc1O)CCNC21CSC2c3c(OC(C)=O)c(C)c4c(c3C(COC1=O)N1C(O)C3Cc5cc(C)c(OC)c(O)c5C(C21)N3C)OCO4 < 31.6 nM

What value of IC50 on VA-ES-BJ tumor spheroid viability does O=C(c1cc(Cc2n[nH]c(=O)c3ccccc23)ccc1F)N1CCN(C(=O)C2CC2)CC1 + COc1cc2c(cc1O)CCNC21CSC2c3c(OC(C)=O)c(C)c4c(c3C(COC1=O)N1C(O)C3Cc5cc(C)c(OC)c(O)c5C(C21)N3C)OCO4 have? < 94.9 nM

Query the reported IC50 for VA-ES-BJ tumor spheroid viability; item: CC(C)n1c(=O)n(C)c2cnc3cc(F)c(-c4ccc(OCCCN5CCCCC5)nc4)cc3c21 + COc1cc2c(cc1O)CCNC21CSC2c3c(OC(C)=O)c(C)c4c(c3C(COC1=O)N1C(O)C3Cc5cc(C)c(OC)c(O)c5C(C21)N3C)OCO4 < 31.6 nM

API: value(readout=IC50, system=VA-ES-BJ tumor spheroid viability) for record Cc1cc(C)c(CNC(=O)c2cc(-c3ccc(CN4CCOCC4)cc3)cc3c2cnn3C2CCCC2)c(=O)[nH]1 + COc1cc2c(cc1O)CCNC21CSC2c3c(OC(C)=O)c(C)c4c(c3C(COC1=O)N1C(O)C3Cc5cc(C)c(OC)c(O)c5C(C21)N3C)OCO4 < 31.6 nM

Can you look up IC50 on VA-ES-BJ tumor spheroid viability for CNCc1ccc(-c2cc(-c3nc(-c4ccc(S(=O)(=O)C(C)C)cc4)cnc3N)on2)cc1 + COc1cc2c(cc1O)CCNC21CSC2c3c(OC(C)=O)c(C)c4c(c3C(COC1=O)N1C(O)C3Cc5cc(C)c(OC)c(O)c5C(C21)N3C)OCO4 ? < 9.49 nM

---

Test system: VA-ES-BJ tumor spheroid viability
Method Summary: Anticancer human tumor VA-ES-BJ cell line growth inhibition;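 further: spheroids exposed to compounds for seven days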;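 on viability, T/C: percent of DMSO vehicle control viability so 100% = untreated growth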
Setup Conditions: second compound 0.00949 µM; first compound 0.1 µM; stronger effect = lower value; spheroids with HUVEC and MSC
Measure: viability, T/C (%)
Hi! Could you send only the number? It should be in %, unit omitted.

Query viability, T/C on VA-ES-BJ tumor spheroid viability for CC(C)n1c(=O)n(C)c2cnc3cc(F)c(-c4ccc(OCCCN5CCCCC5)nc4)cc3c21 + CC[C@@]1(O)C(=O)OCc2c1cc1n(c2=O)Cc2cc3c(CN(C)C)c(O)ccc3nc2-1 46.3

Write down the reported viability, T/C of COc1ccc([C@@H](O)c2cc(-c3ncnc4cc(N5CCOCC5)ccc34)c(F)cc2Cl)nn1 + CC[C@@]1(O)C(=O)OCc2c1cc1n(c2=O)Cc2cc3c(CN(C)C)c(O)ccc3nc2-1 , test system: VA-ES-BJ tumor spheroid viability. 77.2

// fetch VA-ES-BJ tumor spheroid viability viability, T/C for COc1cc(C)[nH]c(=O)c1CN1CCc2c(Cl)cc(C(OC)C3COC3)c(Cl)c2C1=O (stereo unspecified) + CC[C@@]1(O)C(=O)OCc2c1cc1n(c2=O)Cc2cc3c(CN(C)C)c(O)ccc3nc2-1 88.8

Provide the documented viability, T/C with VA-ES-BJ tumor spheroid viability as the system for Cc1cc(C)c(CNC(=O)c2cc(-c3ccc(CN4CCOCC4)cc3)cc3c2cnn3C2CCCC2)c(=O)[nH]1 + CC[C@@]1(O)C(=O)OCc2c1cc1n(c2=O)Cc2cc3c(CN(C)C)c(O)ccc3nc2-1 84

viability, T/C of [2H]c1nc(C)nc([2H])c1-c1cc(NC[C@@H](C)c2cccc3c(C(=O)NC)ccnc23)ncn1 + CC[C@@]1(O)C(=O)OCc2c1cc1n(c2=O)Cc2cc3c(CN(C)C)c(O)ccc3nc2-1 on VA-ES-BJ tumor spheroid viability? 90.6

Checklist item: viability, T/C tested on VA-ES-BJ tumor spheroid viability, entry CC1COCCN1c1cc(-c2ccnn2C)c2ccnc(-c3ccn[nH]3)c2n1 (stereo unspecified) + CC[C@@]1(O)C(=O)OCc2c1cc1n(c2=O)Cc2cc3c(CN(C)C)c(O)ccc3nc2-1 , value? 27.1

// provenance: PubChem BioAssay AID1845217
